Test system: N87
Experiment: In vitro tumor cell proliferation assay (Cell Titer-Glo) in N87 cells
Type: cell-based
Conditions: N87 human gastric carcinoma overexpressing HER2 and HER1; 72 hours exposure; read-out: IC50, activities in N87 cell lines
Examples of compounds with documented IC50 follow.

Below are worked cases with known answers.
CCN(C)C/C=C/C(=O)N1CCc2c(sc3ncnc(Nc4ccc(OCc5ccccn5)c(Cl)c4)c23)C1    < 200 nM
CCN(CC)C/C=C/C(=O)N1CCc2c(sc3ncnc(Nc4cccc(Br)c4)c23)C1    < 200 nM
O=C(/C=C/CN1CCc2ccccc21)N1CCc2c(sc3ncnc(Nc4ccc(F)c(Cl)c4)c23)C1    200 to 5000 nM

Next up:
Q: Provide IC50, system N87, entry CN1CCC=C(C(=O)N2CCc3c(sc4ncnc(Nc5ccc(F)c(Cl)c5)c34)C2)C1
Ans: 200 to 5000 nM

Hey, just so you know, these numbers are from patent US8501755B2.
